target: Solute carrier organic anion transporter family member 1B1 (Homo sapiens, UniProt Q9Y6L6); settings: chinese hamster, cho, 10 µM
Sequence (Q9Y6L6 whole entry): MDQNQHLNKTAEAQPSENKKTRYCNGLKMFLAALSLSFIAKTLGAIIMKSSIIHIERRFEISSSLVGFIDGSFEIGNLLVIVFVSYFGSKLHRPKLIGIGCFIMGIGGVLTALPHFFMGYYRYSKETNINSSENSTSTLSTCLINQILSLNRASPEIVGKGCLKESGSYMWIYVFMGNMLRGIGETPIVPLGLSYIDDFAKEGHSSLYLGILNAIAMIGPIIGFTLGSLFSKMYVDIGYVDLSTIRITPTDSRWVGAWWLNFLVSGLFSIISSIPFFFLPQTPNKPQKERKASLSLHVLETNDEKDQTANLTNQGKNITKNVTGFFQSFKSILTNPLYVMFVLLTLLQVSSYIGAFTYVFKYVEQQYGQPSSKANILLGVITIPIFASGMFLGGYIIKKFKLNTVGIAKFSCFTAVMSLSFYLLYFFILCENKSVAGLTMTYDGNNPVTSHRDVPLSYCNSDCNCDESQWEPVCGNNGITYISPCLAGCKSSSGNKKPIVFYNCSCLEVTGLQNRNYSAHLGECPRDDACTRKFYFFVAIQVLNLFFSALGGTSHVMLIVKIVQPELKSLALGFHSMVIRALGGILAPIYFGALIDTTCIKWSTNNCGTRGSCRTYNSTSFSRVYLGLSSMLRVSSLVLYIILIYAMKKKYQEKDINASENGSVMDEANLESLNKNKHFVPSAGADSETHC
Listing of entries alongside the reported residual activity.
Return type: number; implicit unit %.

Please review the following examples before continuing.
CC(N)C(O)c1ccc(O)c(O)c1.Cl (stereo not drawn) [NORDEFRIN HYDROCHLORIDE] ... 122.3
CN[C@H](CC(=O)O)C(=O)O ... 101.6
CO/N=C1\CN(c2nc3c(cc2F)c(=O)c(C(=O)O)cn3C2CC2)CC1CN.CS(=O)(=O)O (stereo not drawn) [GEMIFLOXACIN MESYLATE] ... 102.7
CC(=O)O[C@H]1CC[C@@]2(C)[C@@H](CC[C@@H]3[C@@H]2CC[C@]2(C)[C@@H]4[C@H](C[C@@H]32)O[C@@]2(CCC(C)CO2)[C@H]4C)C1 (stereo partly drawn) ... 112.3
Cc1noc(NS(=O)(=O)c2ccc(N)cc2)c1C ... 78.99
N#Cc1ccc2c(c1)N(CCCN1CCC(O)CC1)c1ccccc1S2 ... 132.5
Cc1ccc(C(=O)C(C)CN2CCCCC2)cc1.Cl (stereo not drawn) [TOLPERISONE HYDROCHLORIDE] ... 96.3
CCCCCC1C(=O)CCC1CC(=O)OC (stereo not drawn) [DIHYDROJASMONIC ACID, METHYL ESTER] ... 109.5
COc1ccc2c(c1)OCC(Cc1ccc(OC)c(OC(C)=O)c1)C2=O (stereo not drawn) ... 122.7
O[C@@H]1[C@@H](O)[C@@H]2OC[C@@H](O2)[C@H]1O ... 105.1

Q: Which measured residual activity belongs to "CC(=O)Oc1cccc(C(=O)O)c1OC(C)=O" , tested on Solute carrier organic anion transporter family member 1B1 (Homo sapiens, UniProt Q9Y6L6)?
A: 115.7

Q: Now this one: Nc1nc(=O)c2c([nH]1)NCC(CNc1ccc(C(=O)N[C@@H](CCC(=O)[O-])C(=O)[O-])cc1)N2C=O.[Ca+2] (stereo partly drawn)
A: 80.81

Q: Record: "CCN(CC)C(=S)SSC(=S)N(CC)CC"
A: 71.59

Q: Next up: COc1cc(/C=C/C(=O)O)ccc1O [FERULATE]
A: 60.24

Q: Next compound up: CN1[C@@H]2CC[C@H]1C[C@@H](OC(c1ccccc1)c1ccccc1N)C2 (stereo partly drawn)
A: 75.33

Q: Same question for O=C(O[C@@H]1Cc2c(O)cc(O)cc2O[C@@H]1c1ccc(O)c(O)c1)c1cc(O)c(O)c(O)c1 [EPICATECHIN GALLATE] please.
A: 46.4

Q: Note, next up: "CC1=C2C(=CO[C@H](C)[C@H]2C)C(O)=C(C(=O)O)C1=O"
A: 34.39

Q: Entry to check: Cc1cccc(C(=O)O)c1O [HYDROXYTOLUIC ACID]
A: 125.2

Q: Record: CCOC(=O)NNc1nncc2ccccc12.Cl [TODRALAZINE HYDROCHLORIDE]
A: 100.5

Q: And then Cl.NCC(=O)c1ccccc1 [PHENACYLAMINE HYDROCHLORIDE] , what is it?
A: 77.38

Q: Record: "CC(C)(O)[C@@H]1[C@H]2OC(=O)[C@@H]1[C@]1(O)C[C@H]3O[C@]34C(=O)O[C@H]2[C@]14C"
A: 88.44

Q: Thanks! And "CC(=O)[C@H]1CC[C@H]2[C@@H]3CC(=O)C4=CC(=O)CC[C@]4(C)[C@H]3CC[C@]12C" ?
A: 38.54

Q: Repeat for the following compound: COc1cc2nc(N3CCN(C(=O)c4ccco4)CC3)nc(N)c2cc1OC.Cl [PRAZOSIN HYDROCHLORIDE]
A: 99.58

Q: Cn1nnnc1SCC1=C(C(=O)[O-])N2C(=O)[C@@H](NC(=O)[C@H](OC=O)c3ccccc3)[C@H]2SC1.[Na+] [CEFAMANDOLE NAFATE] , same question.
A: 63

Q: Lookup Cl.c1ccc(CC2=NCCN2)cc1 [TOLAZOLINE HYDROCHLORIDE]
A: 74.2

Q: Please give the result for "O=c1cc(-c2ccccc2)oc2cc(O)c(O)c(O)c12" too.
A: 91.06

Q: Then what about the compound "CCN(CC)CCNC(=O)c1cc(Cl)c(N)cc1OC.Cl" ?
A: 84.82

Q: Follow-up entry: COc1ccc(C(=O)c2ccc(O)cc2)c(O)c1O [2,3,4'-TRIHYDROXY-4-METHOXYBENZOPHENONE]
A: 114.8
